B1: CPEB3 Ribozyme (parent)
chain: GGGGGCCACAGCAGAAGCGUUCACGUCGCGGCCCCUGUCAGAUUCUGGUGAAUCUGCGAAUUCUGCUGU

Variants of: B1
measurement-description: self-cleavage, relative activity (ratio to wild type); higher = more cleavage; co-transcriptional
Listing: self-cleavage of selected variants

variant-designation: G3A U55C
self-cleavage: 0.187
//
variant-designation: A13C C18G
self-cleavage: 0.0963
//
variant-designation: A52U U61C
self-cleavage: 0.68
//
variant-designation: U55A U69A
self-cleavage: 1.02
//
variant-designation: C32A C33A
self-cleavage: 0.308
//
variant-designation: G31U C57U
self-cleavage: 0.229
//
variant-designation: C6U A52U
self-cleavage: 0.996
//
variant-designation: C6A G25A
self-cleavage: 0.136
//
variant-designation: C18A U64G
self-cleavage: 0.178
//
variant-designation: A23C A60G
self-cleavage: 0.828
//
variant-designation: U21A C35A
self-cleavage: 0.323
//
variant-designation: G14C G41C
self-cleavage: 0.192
//
variant-designation: C6U C57G
self-cleavage: 0.266
//
variant-designation: G30U C57U
self-cleavage: 0.207
//
variant-designation: G25C A52U
self-cleavage: 0.158
//
variant-designation: U36C U69C
self-cleavage: 1.05
//
variant-designation: G3U U64C
self-cleavage: 0.132
//
variant-designation: U49G U69G
self-cleavage: 1.02
//
variant-designation: C6A U36C
self-cleavage: 0.247
//
variant-designation: G3A U67C
self-cleavage: 0.819
//
variant-designation: G3U A15G
self-cleavage: 0.141
//
variant-designation: C35A A60C
self-cleavage: 0.193
